Tested on: wheat
ASSAY_NOTES: Test A postemergence
Format: in vivo, Triticum aestivum
PARTICULARS: Triticum aestivum, post-emergence, 240 h, 500 g ai/ha, postemergence, 10 days, visual injury, 0 to 100 scale (0 no effect, 100 complete control); read-out: Plant response rating, Wheat
MEASURED_ENDPOINT: plant injury at 500 g/ha (%)

> print(dat)
                                   molecule  assay.result
1  CC(C)c1ncn(-c2cc3c(c(C(=O)N4C[C@H](C)Oc5c(Cl)cccc54)c2)OCC3)n1 [Compound 147]            60
2  Cc1ccc(-n2cnc(C3CCC3)n2)cc1C(=O)N1C[C@H](C)Oc2c(Cl)cccc21 [Compound 96]            40
3  C[C@H]1CN(C(=O)c2cccc(-c3cnn(C)n3)c2)c2cccc(Cl)c2O1 [Compound 127]            20
4  C[C@H]1CN(C(=O)c2cccc(-n3cnc(C4CCC4)n3)c2)c2cccc(Cl)c2O1 [Compound 93]            20
5  COCc1ncn(-c2cccc(C(=O)N3C[C@H](C)Oc4c(C)cccc43)c2)n1 [Compound 101]            70
6  Cc1ccc(-n2cnc(C(C)(C)C)n2)cc1C(=O)N1C[C@H](C)Oc2c(Cl)cccc21 [Compound 76]            40

----------
Tested on: horseweed
ASSAY_NOTES: Test C postemergence
Format: in vivo, Erigeron canadensis
PARTICULARS: Postemergence, 500 g ai/ha, 10 days, visual 0 to 100 scale (0 no effect, 100 complete control)
MEASURED_ENDPOINT: Plant response rating, Horseweed

> print(dat)
                                    compound        tgt  assay.result
 1  CCc1ccc(-n2cnc(C(C)C)n2)cc1C(=O)N1C[C@H](C)Oc2c(C)cccc21  horseweed            70
 2  Cc1cccc2c1O[C@@H](C)CN2C(=O)c1cccc(-n2nccn2)c1  horseweed             0
 3  CCc1ncn(-c2ccc(C)c(C(=O)N3CC(C(F)(F)F)Oc4c(Cl)cccc43)c2)n1 (single isomer, unassigned)  horseweed            70
 4  COC[C@H]1CN(C(=O)c2cccc(-n3cnc(C(C)(C)O)n3)c2)c2cccc(Cl)c2O1  horseweed            20
 5  CCc1ncn(-c2ccc(OC)c(C(=O)N3C[C@H](C)Oc4c(C)cccc43)c2)n1  horseweed            90
 6  CC(C)c1ncn(-c2cc3c(c(C(=O)N4C[C@H](C)Oc5c(Cl)cccc54)c2)CCC3)n1  horseweed            30
 7  CCc1ccc(-n2cnc(C(C)(C)O)n2)cc1C(=O)N1C[C@H](C)Oc2c(C)cccc21  horseweed            20
 8  C[C@H]1CN(C(=O)c2cc(-n3cncn3)cc3c2OCCO3)c2cccc(Cl)c2O1  horseweed            50
 9  COc1ccc(-n2cncn2)cc1C(=O)N1C[C@H](C)Oc2ccccc21  horseweed            30
10  COC[C@H]1CN(C(=O)c2cc(-n3cnc(C(C)(C)O)n3)ccc2C)c2cccc(Cl)c2O1  horseweed            40
11  Cc1ccc(-n2cnc(C3(C)CCC3)n2)cc1C(=O)N1C[C@H](C)Oc2c(Cl)cccc21  horseweed            30
12  C[C@H]1CN(C(=O)c2cccc(-n3cnc(C(C)(C)O)n3)c2)c2cccc(Cl)c2O1  horseweed            40
13  Cc1ccc(-n2cnc(C3(C(F)(F)F)CCC3)n2)cc1C(=O)N1C[C@H](C)Oc2c(Cl)cccc21  horseweed            10
14  COc1cc(C(=O)N2C[C@H](C)Oc3c(Cl)cccc32)cc(-n2cnc(C3CC3)n2)c1  horseweed            50
15  COc1ccc(-n2cncn2)cc1C(=O)N1C[C@H](C)Oc2c(Cl)cccc21  horseweed            90
16  CC(C)=C(C)c1ncn(-c2cccc(C(=O)N3C[C@H](C)Oc4c(C)cccc43)c2)n1  horseweed            10
17  CC(C)c1ncn(-c2ccc([S+]([O-])C(F)(F)F)c(C(=O)N3C[C@H](C)Oc4c(Cl)cccc43)c2)n1 (stereo partly drawn)  horseweed             0
18  COC[C@H]1CN(C(=O)c2cc(-n3cncn3)ccc2OC)c2cccc(Cl)c2O1  horseweed            20
19  CC(C)c1ncn(-c2cc(OC(F)F)c(OC(F)F)c(C(=O)N3C[C@H](C)Oc4c(Cl)cccc43)c2)n1  horseweed             0
20  Cc1ccc(-n2cnc(C[S+](C)[O-])n2)cc1C(=O)N1C[C@H](C)Oc2c(Cl)cccc21 (stereo partly drawn)  horseweed            50
21  Cc1cc(-n2cnc(C(C)C)n2)cc(C(=O)N2C[C@H](C)Oc3c(Cl)cccc32)c1F  horseweed            30
